System: Mus musculus
PROTOCOL NOTES: Anticonvulsant activity in mouse assessed as protection against maximal electroshock-induced seizures at 30 mg/kg, ip after 4 hrs
Type: functional, organism-based
Parameters: dose 30 mg/kg
Calls of active or inactive are those of the source. The rule behind the calls is not given here.
Select the matching outcome among active, inactive

Sample answers from the record:
SMILES REPRESENTATION	CLASSIFICATION
O=C(O/N=C(\Cn1ccnc1)c1ccc2ccccc2c1)c1cccc(Br)c1	inactive
Cc1ccc(C(=O)O/N=C(\Cn2ccnc2)c2ccc3ccccc3c2)cc1	inactive
CC(C)CC(=O)O/N=C(\Cn1ccnc1)c1ccc2ccccc2c1.Cl	inactive
COc1cccc(C(=O)O/N=C(\Cn2ccnc2)c2ccc3ccccc3c2)c1	inactive

For the next question, use this compound.
Dear all, I need the recorded test outcome for O=C(CCC(=O)c1ccccc1)O/N=C(\Cn1ccnc1)c1ccc2ccccc2c1 , thank you. active
